B1: Caulobacter ParB omega fusion; a variant is named by its letters at X, in order, B8GW30 (parent)
chain: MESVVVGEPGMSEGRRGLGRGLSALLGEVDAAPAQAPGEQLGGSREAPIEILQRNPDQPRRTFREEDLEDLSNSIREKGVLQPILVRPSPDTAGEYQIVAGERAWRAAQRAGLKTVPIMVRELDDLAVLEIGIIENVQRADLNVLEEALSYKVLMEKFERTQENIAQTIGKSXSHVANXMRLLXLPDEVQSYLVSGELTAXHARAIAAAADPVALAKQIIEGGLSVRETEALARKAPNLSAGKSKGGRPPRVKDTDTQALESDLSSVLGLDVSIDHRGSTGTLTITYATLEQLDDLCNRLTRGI

variants of: B1; assay: one-hybrid fitness for binding NBS DNA (the Noc-binding site; scaled: cognate 1, non-cognate 0); higher = stronger binding; settings: with NBS DNA site
In all, about 81,000 sequences were measured (“one-hybrid fitness for binding NBS DNA”: median about -0.1, highest 2% from about 0.36 on). What follows is part of a selection rich in the highest values, with near analogues and random picks from the rest.
reported.metric: one-hybrid fitness for binding NBS DNA
Answer with the value's number alone.

• RRES = 0.578
• QCKA = 0.608
• QAKA = 0.521

Value lookup for one-hybrid fitness for binding NBS DNA; key = `RRYN`
0.26

Value lookup for one-hybrid fitness for binding NBS DNA; key = `PRKW`
0.446

Value lookup for one-hybrid fitness for binding NBS DNA; key = `RRIC`
0.399

Value lookup for one-hybrid fitness for binding NBS DNA; key = `RAIT`
0.22

Value lookup for one-hybrid fitness for binding NBS DNA; key = `QRRW`
0.384

Value lookup for one-hybrid fitness for binding NBS DNA; key = `RRPC`
0.249

Value lookup for one-hybrid fitness for binding NBS DNA; key = `QRYW`
0.203
